tested on: Human immunodeficiency virus 1; experiment: Binding affinity to N-terminal His6-tagged HIV1 HXB2 Vif CTD (141 to 192 amino acids) expressed in Escherichia coli MC-1061 after overnight incubation by chemiluminescence assay
The source made the active and inactive calls. The calls are words filed in the database; no cut-off is given here.
Log the outcome using a class from active, inactive

H-HQGCPFQPWDGLDEH-OH: inactive
H-MRFFHWFSKWRKLHR-OH: active
H-QEMAKFISKNKHVSL-OH: active
H-TFLAEDPKVTLTIFV-OH: active
H-LDVIPFWKLDLDQDY-OH: active
H-AGAKISIMTYSEFKH-OH: inactive
H-DGPRATMKIMNYDEF-OH: active
H-YSQRELFEPWNNLPK-OH: active
H-NTVWLCYEVKTKGPS-OH: active

Switching to the query record.
How was H-WVRGRHETYLCYEVE-OH classified in this test?
active
